# credit: patent US20250282734A1

# Method notes: Determination of exposure in rat after intragastric administration (Example 13)
# Type: in vivo
# Setup conditions: free acid in rat plasma, dose equiv. 495 mg/kg
Measurement label: AUC(0-tlast)norm (kg·h/L)
Answer format: numeric, kg·h/L implied, no suffix.

Request the reported AUC(0-tlast)norm associated with O=C(O)c1cc(NC(=O)C2(c3ccc(C(F)(F)F)cc3F)CC2)ccc1-c1cnn(C2CCC2)c1 [cholinate]
2

* * *

# Method notes: Determination of exposure in rat after intragastric administration (Example 13)
# Assay type: in vivo
# Setup conditions: female, rat, plasma, po, 100 mg/kg, free acid in rat plasma, dose equiv. 100 mg/kg, read-out: AUC(0-tlast)
Measurement label: AUC(0-t) (µg·h/mL)
Answer format: numeric, µg·h/mL implied, no suffix.

Request the reported AUC(0-t) associated with O=C(O)c1cc(NC(=O)C2(c3ccc(C(F)(F)F)cc3F)CC2)ccc1-c1cnn(C2CCC2)c1 [free acid]
247
